Values compiled from patent US10899732B2.

molecular target: UniProtKB Q15858; experiment: Tritiated sulfonamide competitive binding to membranes from cells expressing hNav1.7 and the β1 subunit (LBA); conditions: competition with 100 pM [3H]compound, 18 h, room temperature; read-out: Nav1.7 (LBA)
Sequence (Q15858 1-1977 isoform Q15858-3): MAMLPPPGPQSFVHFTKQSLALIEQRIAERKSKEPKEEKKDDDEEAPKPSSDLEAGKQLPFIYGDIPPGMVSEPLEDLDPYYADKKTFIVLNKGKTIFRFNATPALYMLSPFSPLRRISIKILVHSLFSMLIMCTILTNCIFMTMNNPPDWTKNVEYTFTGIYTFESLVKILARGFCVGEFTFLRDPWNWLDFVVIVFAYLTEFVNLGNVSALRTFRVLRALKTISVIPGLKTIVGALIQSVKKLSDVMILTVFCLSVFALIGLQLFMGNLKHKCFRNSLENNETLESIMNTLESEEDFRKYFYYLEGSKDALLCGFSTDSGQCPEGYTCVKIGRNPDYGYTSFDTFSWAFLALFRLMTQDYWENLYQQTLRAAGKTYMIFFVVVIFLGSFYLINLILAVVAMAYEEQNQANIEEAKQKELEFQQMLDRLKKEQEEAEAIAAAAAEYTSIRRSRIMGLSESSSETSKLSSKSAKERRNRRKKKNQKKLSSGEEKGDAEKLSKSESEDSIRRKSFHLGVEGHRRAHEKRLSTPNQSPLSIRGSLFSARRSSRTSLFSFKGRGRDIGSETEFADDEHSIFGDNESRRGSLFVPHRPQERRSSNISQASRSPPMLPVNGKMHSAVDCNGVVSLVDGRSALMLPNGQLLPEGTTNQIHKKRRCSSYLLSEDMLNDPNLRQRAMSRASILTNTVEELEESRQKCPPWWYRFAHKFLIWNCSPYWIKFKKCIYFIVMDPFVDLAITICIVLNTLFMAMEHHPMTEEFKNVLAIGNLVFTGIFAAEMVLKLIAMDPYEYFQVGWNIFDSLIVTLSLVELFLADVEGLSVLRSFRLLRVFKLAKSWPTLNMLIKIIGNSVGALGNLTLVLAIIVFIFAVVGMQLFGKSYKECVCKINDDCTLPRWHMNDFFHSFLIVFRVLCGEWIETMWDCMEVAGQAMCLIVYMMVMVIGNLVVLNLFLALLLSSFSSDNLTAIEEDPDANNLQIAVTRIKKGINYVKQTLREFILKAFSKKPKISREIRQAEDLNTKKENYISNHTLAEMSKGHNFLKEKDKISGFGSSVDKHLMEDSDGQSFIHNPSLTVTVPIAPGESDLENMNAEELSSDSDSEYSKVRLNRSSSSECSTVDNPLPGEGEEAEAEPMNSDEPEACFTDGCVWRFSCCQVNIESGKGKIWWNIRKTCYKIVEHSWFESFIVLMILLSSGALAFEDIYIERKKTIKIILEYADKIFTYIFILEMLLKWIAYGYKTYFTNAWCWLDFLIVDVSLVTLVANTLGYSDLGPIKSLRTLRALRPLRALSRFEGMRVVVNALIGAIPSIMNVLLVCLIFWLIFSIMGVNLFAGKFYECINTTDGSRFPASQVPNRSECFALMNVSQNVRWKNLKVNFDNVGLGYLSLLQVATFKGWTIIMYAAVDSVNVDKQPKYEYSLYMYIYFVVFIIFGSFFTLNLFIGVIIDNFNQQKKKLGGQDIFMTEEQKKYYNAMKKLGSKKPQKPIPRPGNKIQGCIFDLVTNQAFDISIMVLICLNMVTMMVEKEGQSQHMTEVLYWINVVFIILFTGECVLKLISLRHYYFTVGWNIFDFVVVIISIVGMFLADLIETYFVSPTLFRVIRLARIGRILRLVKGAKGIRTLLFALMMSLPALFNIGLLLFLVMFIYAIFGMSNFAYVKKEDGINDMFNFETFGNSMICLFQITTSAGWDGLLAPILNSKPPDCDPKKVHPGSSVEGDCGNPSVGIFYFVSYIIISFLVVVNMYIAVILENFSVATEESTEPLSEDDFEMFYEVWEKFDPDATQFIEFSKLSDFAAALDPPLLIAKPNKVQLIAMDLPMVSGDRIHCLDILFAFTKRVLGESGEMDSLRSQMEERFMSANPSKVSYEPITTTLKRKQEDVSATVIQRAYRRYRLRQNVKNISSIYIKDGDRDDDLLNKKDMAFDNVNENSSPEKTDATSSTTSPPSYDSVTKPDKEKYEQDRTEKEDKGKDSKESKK
Sequence (Q07699 19-218 partner): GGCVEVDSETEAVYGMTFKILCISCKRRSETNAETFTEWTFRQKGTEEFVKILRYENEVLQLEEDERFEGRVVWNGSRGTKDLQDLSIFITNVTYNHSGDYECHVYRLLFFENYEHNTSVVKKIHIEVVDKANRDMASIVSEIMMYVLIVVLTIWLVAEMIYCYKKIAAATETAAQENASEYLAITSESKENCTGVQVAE
Structures can show the parent of a compound that is named as a salt.
Assay Endpoint: pIC50
To interpret pIC50, take it as minus log10 of a concentration measured in moles per litre.

Exercise: UniProtKB Q15858 / pIC50 / Cc1nn([C@@H]2CCN([C@@H](C)c3cc(Cl)cc(Cl)c3)C2)c2cc(F)c(C(=O)NS(=O)(=O)C3CC3)cc12 [Example 19, trifluoroacetic acid salt] : value?
Solution: 7.92

Exercise: UniProtKB Q15858 / pIC50 / Cc1nn(-c2cnc(OCC(C)C)c(Cl)c2)c2cc(F)c(C(=O)NS(=O)(=O)N3CCC3)cc12 [Example 42] : value?
Solution: 8.15

Exercise: UniProtKB Q15858 / pIC50 / Cc1nn(C2CCC(C)CC2)c2cc(F)c(C(=O)NS(=O)(=O)N3CCC3)cc12 (stereo not shown) [Example 29] : value?
Solution: 6.46

Exercise: UniProtKB Q15858 / pIC50 / Cc1nn(C2CCC(C(C)C)CC2)c2cc(F)c(C(=O)NS(C)(=O)=O)cc12 (stereo not shown) [Example 33] : value?
Solution: 7.70

Exercise: UniProtKB Q15858 / pIC50 / Cc1nn([C@@H]2CCN([C@H](C)c3cc(Cl)cc(OC(F)(F)F)c3)C2)c2cc(F)c(C(=O)NS(=O)(=O)C3CC3)cc12 [Example 22, trifluoroacetic acid salt] : value?
Solution: 7.70

Exercise: UniProtKB Q15858 / pIC50 / Cc1nn(-c2ccc3c(c2)CCCC3)c2cc(F)c(C(=O)NS(=O)(=O)N3CCC3)cc12 [Example 25] : value?
Solution: 6.59

Exercise: UniProtKB Q15858 / pIC50 / Cc1nn(C2CCN([C@H](C)c3cc(Cl)cc(Cl)c3)CC2)c2cc(F)c(C(=O)NS(=O)(=O)C3CC3)cc12 [Example 9] : value?
Solution: 8.22

Exercise: UniProtKB Q15858 / pIC50 / Cc1nn(-c2cnc(OCC(C)C)c(Cl)c2)c2cc(F)c(C(=O)NS(C)(=O)=O)cc12 [Example 39] : value?
Solution: 8.10

Exercise: UniProtKB Q15858 / pIC50 / Cc1nn([C@@H]2CCN(C(=O)c3cc(Cl)cc(Cl)c3)C2)c2cc(F)c(C(=O)NS(=O)(=O)C3CC3)cc12 [Example 21] : value?
Solution: 5.82

Exercise: UniProtKB Q15858 / pIC50 / Cc1nn(C2CCN(Cc3cc(C(F)(F)F)cc(Cl)c3F)CC2)c2cc(F)c(C(=O)NS(=O)(=O)C3CC3)cc12 [Example 2, 2,2,2-trifluoroacetate] : value?
Solution: 7.89

Exercise: UniProtKB Q15858 / pIC50 / Cc1nn(C2CCN(Cc3cc(C(F)(F)F)cc(Cl)c3F)CC2)c2cc(F)c(C(=O)NS(=O)(=O)N3CCC3)cc12 [Example 3, 2,2,2-trifluoroacetate] : value?
Solution: 7.48

Exercise: UniProtKB Q15858 / pIC50 / Cc1nn(C2CCN(Cc3cc(C(F)(F)F)cc(Cl)c3F)CC2)c2cc(F)c(C(=O)NS(C)(=O)=O)cc12 [Example 1, 2,2,2-trifluoroacetate] : value?
Solution: 7.47

Exercise: UniProtKB Q15858 / pIC50 / Cc1nn(C2CCN([C@@H](C)c3cc(Cl)cc(Cl)c3)CC2)c2cc(F)c(C(=O)NS(=O)(=O)C3CC3)cc12 [Example 10] : value?
Solution: 8.00
